B1: Glucocorticoid receptor, residues 419 to 494; numbered along this chain, P04150 (parent)
chain: KLCLVCSDEASGCHYGVLTCGSCKVFFKRAVEGQHNYLCAGRNDCIIDKIRRKNCPACRYRKCLQAGMNLEARKTK

Variants of: B1
Experiment: abundance fitness (aPCA) (normalised: wild type 0, dead -1); higher = more abundant; growth selection in yeast, the domain comes from the species named
Conditions: Homo sapiens
Readout Label: abundance fitness

>>> recorded_result("A30E")
-0.142
>>> recorded_result("N36H")
-0.042
>>> recorded_result("L64M")
-0.023
>>> recorded_result("K74Q")
0.063
>>> recorded_result("K49E")
-0.097
>>> recorded_result("R73D")
-0.125
>>> recorded_result("G67W")
-0.656
>>> recorded_result("L4P")
-0.098
>>> recorded_result("R61F")
-0.13
>>> recorded_result("H14G")
-0.187
>>> recorded_result("V5W")
-0.952
>>> recorded_result("A66C")
-0.037
>>> recorded_result("K74R")
0.054
>>> recorded_result("H14S")
-0.076
>>> recorded_result("Y15V")
-0.208
>>> recorded_result("K24N")
-0.028
>>> recorded_result("V31I")
0.037
>>> recorded_result("G67N")
-0.226
>>> recorded_result("A72W")
-0.023
>>> recorded_result("I47E")
-0.216
>>> recorded_result("D44C")
0.009
>>> recorded_result("G67P")
-0.904
>>> recorded_result("K24R")
-0.105
>>> recorded_result("N54K")
0.049
>>> recorded_result("F27W")
-0.071
>>> recorded_result("S7Q")
0.029
>>> recorded_result("E32A")
-0.166
>>> recorded_result("R59W")
0.017
>>> recorded_result("Y15W")
0.008
>>> recorded_result("E71I")
-0.016
>>> recorded_result("L2V")
-0.02
>>> recorded_result("R61G")
-0.063
>>> recorded_result("S7N")
-0.111
>>> recorded_result("D44I")
-0.344
>>> recorded_result("C20K")
-0.948
>>> recorded_result("Q65A")
-0.019
>>> recorded_result("L2Q")
0.029
>>> recorded_result("G41N")
0.032
>>> recorded_result("A10Y")
-0.272
>>> recorded_result("N54I")
0.014
>>> recorded_result("I46F")
0.087
>>> recorded_result("Q34W")
-0.136
>>> recorded_result("R42T")
0.036
>>> recorded_result("V17Q")
-0.194
>>> recorded_result("C39H")
-0.575
>>> recorded_result("K76P")
0.004
>>> recorded_result("D8A")
0.037
>>> recorded_result("A66S")
-0.058
>>> recorded_result("R52S")
-0.12
>>> recorded_result("A40N")
-0.024
>>> recorded_result("E9V")
0.031
>>> recorded_result("M68S")
-0.771
>>> recorded_result("L18T")
-0.031
>>> recorded_result("R51T")
-0.016
>>> recorded_result("A40F")
-0.088
>>> recorded_result("F27Q")
-0.896
>>> recorded_result("K28N")
-0.063
>>> recorded_result("K74E")
0.091
>>> recorded_result("D48S")
-0.142
>>> recorded_result("V17W")
-0.641
>>> recorded_result("Q34I")
-0.188
>>> recorded_result("V17M")
-0.379
>>> recorded_result("R61L")
0
>>> recorded_result("N69K")
0.001
>>> recorded_result("I46R")
-0.012
>>> recorded_result("A10D")
-0.251
>>> recorded_result("Q65W")
-0.063
>>> recorded_result("A57P")
-0.247
>>> recorded_result("R73Y")
-0.062
>>> recorded_result("C6V")
-1.06
